# Test system: SK-MEL-2
# PROTOCOL SUMMARY: NCI tumour cell line growth inhibition, 48 h
Calls of active or inactive are those of the source. No stated cut-off is given here; in the data, active = GI50 up to about 1.1 µM and inactive = higher.
Tick one outcome: YES = active, NO = inactive

Past entries and their recorded results:
>  <MOLECULE>
N#Cc1c(N2CCCC2)ncn(Cc2ccccc2)c1=S

>  <ANSWER LABEL>
NO

$$$$
>  <MOLECULE>
c1ccc(C2(c3cc4ccccc4[nH]3)OCCO2)nc1

>  <ANSWER LABEL>
NO

$$$$
>  <MOLECULE>
OC(c1cc2ccccc2[nH]1)C(O)(c1cc2ccccc2[nH]1)c1cc2ccccc2[nH]1 (configuration not stated)

>  <ANSWER LABEL>
NO

$$$$
>  <MOLECULE>
COc1cc(C23OCC(Cc4cc5c(cc42)OCO5)C3CO)cc(OC)c1OC (configuration not stated)

>  <ANSWER LABEL>
NO

$$$$
>  <MOLECULE>
O=C1C2C(C(=O)N1c1ccccc1)C1(c3ccccc3)CCC2(C(=O)c2ccccc2)O1 (configuration not stated)

>  <ANSWER LABEL>
NO

$$$$

Now consider a different molecule.
Would you mind telling me which call this test gave Nc1nc2[nH]cnc2c(=S)[nH]1 [THIOGUANINE] ?
YES
